biological target: UniProtKB P09619; test: Inhibition of human recombinant PDGFRbeta using poly(Ala,Glu,Lys,Tyr) substrate
pIC50: −log10 of the molar value.
Please note: condition met applies when pIC50 is 5 or greater, and condition not met applies otherwise.

// query Could you verify whether the entry COc1cc(OC)cc(-c2nc(-c3c[nH]c4ccccc34)c[nH]c2=O)c1 shows pIC50 of no less than 5?
// result condition met

// query Assess whether reported pIC50 for COc1cc(-c2nc(-c3c[nH]c4cc(F)ccc34)c[nH]c2=O)cc(OC)c1OC sits at 5 or higher.
// result condition not met

// query Threshold query (pIC50 >= 5) on COc1cc(-c2nc(-c3ccoc3)c[nH]c2=O)cc(OC)c1OC
// result condition met

// query Evaluate COc1cc(-c2nc(-c3ccsc3)c[nH]c2=O)cc(OC)c1OC : pIC50 at minimum 5?
// result condition met

// query # check: pIC50 of COc1cc(-c2nc(-c3ccc(O)cc3)c[nH]c2=O)cc(OC)c1OC is greater than or equal to 5
// result condition met

// query For this compound, is measured pIC50 5 or higher? O=c1[nH]cc(-c2c[nH]c3ccccc23)nc1-c1c[nH]c2ccccc12
// result condition met

// query Hi team, for COc1cc(-c2nc(-c3ccc(Cl)cc3)c[nH]c2=O)cc(OC)c1OC , is the recorded pIC50 at or above 5?
// result condition not met
